# Test system: human PKK mRNA
# assay-text: Dose-dependent antisense inhibition of human PKK in HepaRG cells, 0.12-10.00 uM (Example 4)
# Format: cell-based
# protocol-conditions: Table 33, 0.37 μM, electroporation, ~16 h
Strand notation (5' to 3'): a small letter for the sugar, then the base; units joined by * are phosphorothioate-linked, units joined directly phosphodiester-linked; [ ] holds rarer units or linkages, { } end groups; capitals alone tell only the bases. e = 2'-O-(2-methoxyethyl) (MOE); [5mC] = 5-methylcytosine; d = 2'-deoxy (DNA)
Decision: percent inhibition of PKK at 0.37 μM >= 30% yields true, all other cases yield false.

Use these answered entries as a reference point.
{"columns": ["substance", "assigned-class"],
 "data": [
  ["531026 (antisense eA*eT*e[5mC]*eA*eT*dG*dA*dT*dT*d[5mC]*d[5mC]*d[5mC]*dT*dT*d[5mC]*eT*eG*eA*eG*eA) [compound 531026]", "false"],
  ["531110 (antisense eG*e[5mC]*e[5mC]*eT*eG*dT*dT*dT*dG*dG*dT*dG*dG*dT*d[5mC]*eT*e[5mC]*eT*eT*e[5mC]) [compound 531110]", "false"],
  ["531123 (antisense eT*e[5mC]*e[5mC]*e[5mC]*eA*dG*d[5mC]*dT*d[5mC]*d[5mC]*dA*dG*dT*d[5mC]*dA*e[5mC]*e[5mC]*eA*e[5mC]*e[5mC]) [compound 531123]", "true"],
  ["531172 (antisense eT*eT*e[5mC]*eA*eA*dG*d[5mC]*d[5mC]*dT*dG*dG*dG*d[5mC]*dA*dG*e[5mC]*eA*e[5mC]*eA*eG) [compound 531172]", "false"],
  ["531071 (e[5mC]*eT*eG*e[5mC]*eT*d[5mC]*dT*dG*dT*dG*dT*dT*dT*dT*d[5mC]*eT*e[5mC]*eT*eA*eA; antisense) [compound 531071]", "true"]
]}

Then this substance:
**Query** Reported percent inhibition of PKK at 0.37 μM at or above 30%? 531069 (e[5mC]*e[5mC]*eA*eG*eT*d[5mC]*d[5mC]*dA*dT*dG*dT*dA*d[5mC]*dT*d[5mC]*eA*eG*e[5mC]*eG*eA; antisense) [compound 531069]
**Result** true

The origin of these recorded values is patent US11840686B2.
